Reference source for all entries: the supplement of paper PMC9732359

Attribute: protein stability index
experiment: protein stability index of a GFP-peptide fusion (yeast GPS) (PSI 1-4); higher = more stable; sorted into four equal gates, so the index is relative within each strain; conditions: san1∆
metric_name: protein stability index

sequence_entry | metric_name | value_reported
TLTASPDGTLIASAGKD [ASC1] | protein stability index | 3.12
KLQSWDKVSSCFPQYVN [NNF1] | protein stability index | 1.45
AQAQAQAQAQAHAQHQP [GAL11] | protein stability index | 2.83
KLLSLLRSKTSAGRIES [SIR4] | protein stability index | 2.42
ALDFRNVSIVANYIKER [SMC4] | protein stability index | 1.51
TENATENDQQDNEEWMN [LIN1] | protein stability index | 3.06
ANPKKLALMTAHSLSPK [CDC53] | protein stability index | 2.72
MGRVRTKTVKRASKALI [RPS17A] | protein stability index | 3.1

----------
assay: protein stability index of a GFP-peptide fusion (yeast GPS) (PSI 1-4); higher = more stable; sorted into four equal gates, so the index is relative within each strain; conditions: ubr1∆
metric_name: protein stability index

sequence_entry | metric_name | value_reported
KRPRSRTLTAVHDKVLE [RPS7B] | protein stability index | 2.08
KALQSIGQLIGEVMKEL [RPT4] | protein stability index | 3.36
MFTYSQETQHGNITRGL [RPN2] | protein stability index | 3.21
QHQSLSRSSSKNVNIED [ESC2] | protein stability index | 3.04
VPIERVAQLKPFFKYID [RPC37] | protein stability index | 2.71
KIVYIAPLKALVQEQVR [BRR2] | protein stability index | 1.3
VPSPTGEYVKEPEWVLE [RPO21] | protein stability index | 3.15
ITIFSPEGRLYQVEYAF [SCL1] | protein stability index | 2.37
ELLNADHQHILRKLKKM [RPC53] | protein stability index | 1.28
KKNNAASELANPYSSYV [YAR002W/NUP60] | protein stability index | 2.83
QNRRLAFEELEGSWDRG [PRP8] | protein stability index | 3.31
FITFSLDDWISIGYETE [IRR1] | protein stability index | 2.6
EHLDCMNFISKEEFIMM [PCI8] | protein stability index | 3.17
DYKTAFSYFFESFESYH [RPN6] | protein stability index | 2.55
FYGVLDQGNGWLYVYET [RPN6] | protein stability index | 3.02

----------
test: protein stability index of a GFP-peptide fusion (yeast GPS) (PSI 1-4); higher = more stable; sorted into four equal gates, so the index is relative within each strain; details: pdr5∆
Label NO if protein stability index falls below 3; label YES in every other case.

sequence_entry | assigned_label
KLRDHEPDLESQISKAE [SMC4] | NO
TATAATNGNNAGGGSNK [MED6] | YES
TEPDKPAFSFNSSVGNK [YJL041W/NSP1] | YES
RELEQIKPKIALQDKEI [SNF12] | YES
YRLDIIESALKSKLDQD [RPN2] | NO
DTVDRLIIKYQKYWESM [GAL11] | NO

----------
test: protein stability index of a GFP-peptide fusion (yeast GPS) (PSI 1-4); higher = more stable; sorted into four equal gates, so the index is relative within each strain; details: san1∆
Attribute: protein stability index
metric_name: protein stability index

sequence_entry | metric_name | value_reported
SSNQSAPVETKKKRFEI [HRT1] | protein stability index | 3.08
TNVLNFIKLQKIDIIEL [FAS1] | protein stability index | 1.91
KIVYIAPLKALVQEQVR [BRR2] | protein stability index | 1.41
QLLDIAEFKKENLADLD [LIN1] | protein stability index | 1.24
QRFVGHKSDVMSVDIDK [ASC1] | protein stability index | 2.69
GLARKFHNMLQTLYTGD [SSN3] | protein stability index | 3.01
RLERRINLTKVTQKDIC [CSI1] | protein stability index | 3.18
IQKEEEPENNTVIEGVK [SWI3] | protein stability index | 3.28

----------
experiment: protein stability index of a GFP-peptide fusion (yeast GPS) (PSI 1-4); higher = more stable; sorted into four equal gates, so the index is relative within each strain; details: pdr5∆
Attribute: protein stability index

sequence_entry | protein stability index
VPSAKPLILTPPQLANQ [SNF11] | 2.26
SLQYIERQQDELENFLD [YJL041W/NSP1] | 3.04
SYQKAWDLLQSGSQNIS [RPN12] | 1.11
YKFLDQNSDASTLEPTL [YIL149C/MLP2] | 1.65
GKLWKDVKARIAAGDGD [QCR9] | 2.58
EIESIDKLPQFVDENTF [RPN1] | 3.4
KKHTKKFKRHHSDRYHR [RPL32] | 2.99
LAMEAILNELEVFIGRV [YJR042W/NUP85] | 2.93
FLQHPDEEYPVKVKVSY [PRP8] | 3.18
STIEKDMKEYDSDKGSK [SMC2] | 3.44
DFITGSYLISHKDSFYD [RPO31] | 1.94
LLDVKLAIDNMYILGMC [YCG1] | 1.51
LISLIMTTWRKLYTKEL [YMR129W/POM152] | 1.15
RIQLMNDFTTKLINIKK [MED1] | 2.81

----------
experiment: protein stability index of a GFP-peptide fusion (yeast GPS) (PSI 1-4); higher = more stable; sorted into four equal gates, so the index is relative within each strain; settings: doa10∆
Attribute: protein stability index

sequence_entry | protein stability index
GAGGLNPFTSATSSTNA [YOR098C/NUP1] | 2.04
ISPSAPSKDSFTKYKPA [YAR002W/NUP60] | 2.65
SKNELKKAFTSYDRTLL [RPS16A] | 2.76
NSADVDMDAQGRSDSNT [YGL100W/SEH1] | 3.45
RIHAKNFEAALFAKSSS [GAL11] | 2.67
EGYGLRDVMCTDGVIGS [RPO31] | 2.35
RHSGKVYPITLSTDATS [UBP6] | 1.98
DRPGSKFHKREVVEAVT [RPL3] | 3.04
DHLIIEPEEEKSKREEE [ARP9] | 3.15
ANNGAAFSPLTTTRIQS [MED2] | 2.67
NVEEEQIVPYIEKLTDG [BRR2] | 3.05
QNIMTLPDGKNGNLEEE [MED6] | 3.37
WIKFDQELYNELCKKNE [RPN7] | 3.12
SRTAADILLRLCVLWDD [YCG1] | 2.23

----------
test: protein stability index of a GFP-peptide fusion (yeast GPS) (PSI 1-4); higher = more stable; sorted into four equal gates, so the index is relative within each strain; settings: ubr1∆
Attribute: protein stability index
metric_name: protein stability index

sequence_entry | metric_name | value_reported
EGKVTKLRRECSNPTCG [RPS31] | protein stability index | 3.1
FAQGKRRYDRKQSGFGG [RPL42A] | protein stability index | 3.34
LVSSGDRFIELISDQLL [YML103C/NUP188] | protein stability index | 3
CVKLTVRSLLEVVQTGA [PRE6] | protein stability index | 2.27
LQMYSKIRRHPNIMLIF [FAS1] | protein stability index | 1.91
IAAIIGRLNTLVISLAA [IRR1] | protein stability index | 1.77
GVDPTGSHLFSIHAHGS [PUP1] | protein stability index | 2.06
GNDFKFNYQGDELVLNF [REC8] | protein stability index | 3.17
PKYRDNLATWYHSAGGR [SSN3] | protein stability index | 2.99
ADLERFFLSIYFFYASR [YJL039C/NUP192] | protein stability index | 1.55
KCGSVTVRLIPAPRGSG [RPS2] | protein stability index | 1.99
EKIKMKLKQGQKLFVQV [GAL11] | protein stability index | 3.23
NSLSSNLSSLIVEINNV [YJL041W/NSP1] | protein stability index | 2.41
KEFKGIKVTVQLKIQNR [RPL12A] | protein stability index | 2.4
TRVEGSGGGDSEVQRTM [RPT6] | protein stability index | 3.19
WEQLKITVVPVVAAAED [QCR6] | protein stability index | 2.03
KPNNTANTGGGLFGANS [YGL172W/NUP49] | protein stability index | 3.08
SIRLKVPPTIAQFQYTL [RPL8A] | protein stability index | 2.19
NNSNSNNNDNNNSNTVA [SWI1] | protein stability index | 3.13
SGITDPYEMYKYVHVSE [FAS2] | protein stability index | 2.4
LKKGEVSLGTSIMAVTF [PRE3] | protein stability index | 1.13
NILNMSMNNDFQQQQQQ [PGD1] | protein stability index | 2.67
FDYMNRYWVQKERSDGK [CDC53] | protein stability index | 2.57
NNSEQDQEIVIQQLHSV [ISW2] | protein stability index | 2.53
SSTDIPSYTHVLISKLS [RRI1] | protein stability index | 2.35
LLVKFIKFFWNNTHVGR [YLR018C/POM34] | protein stability index | 2.66
LDKDSSQSSAAAGASVD [RPN6] | protein stability index | 3.2
VKIHSQESLLSRTFDKY [SRP72] | protein stability index | 2.57
YVFNARPDGVHVINVGK [RPS0A] | protein stability index | 2.55
NKPAIKEDSTIQDSNGD [SWI3] | protein stability index | 3.04
